The compounds below have reported pIC50 for JMJD2C (Homo sapiens (Human), UniProt Q9H3R0).
pIC50: −log10 of the molar value.

[ask] Request the reported pIC50 associated with O=C(O)c1ccncc1NCC1CCOc2cc(N3CCc4ccccc43)ccc21 (centres unmarked)
[reply] 6.00 to 7.00

[ask] I'd like to know its pIC50. The compound in question is `Cc1cnc(N(C)c2ccc3c(c2)CCC[C@H]3CNc2cnccc2C(=O)O)nc1`
[reply] 6.00 to 7.00

[ask] Please look up its pIC50: `Cc1sccc1-c1ccc2c(c1)OCC[C@@H]2CNc1cnccc1C(=O)O`
[reply] 5.00 to 6.00

[ask] What value of pIC50 has been recorded for this entry: `CN(c1ccc(CC2CC2)cc1)c1ccc2c(c1)OCC[C@H]2CNc1cnccc1C(=O)O`
[reply] 6.00 to 7.00

[ask] Need pIC50 of `COc1cc(F)ccc1-c1ccc2c(c1)OCC[C@H]2CNc1cnccc1C(=O)O` , thanks.
[reply] 6.00 to 7.00

* * *

Test system: KYSE-150 esophageal carcinoma cell line
ASSAY EXPLANATION: In vitro cell-based assay: cellular proliferation via BrdU incorporation (ELISA)
Parameters: species or system human
MEASUREMENT PARAMETERS: Homo sapiens, KYSE-150, 168 hours compound incubation
Counter-ions that a name gives are not always drawn.
Kindly state IC50 for each of the entries shown.

[ask] # input compound: CN(c1ccccc1)c1ccc2c(c1)CCOC2CNc1cnccc1C(=O)O (stereo not shown) [Example 146] ; wanted: its IC50
[reply] ≤ 100 nM

[ask] Which value of IC50 has been reported for CN(c1ccncc1)c1ccc2c(c1)CCC[C@H]2CNc1cnccc1C(=O)O [Example 173] in the records?
[reply] > 10000 nM

[ask] I have this compound here, Cc1ccc(N(C)c2ccc3c(c2)OCC[C@H]3CNc2cnccc2C(=O)O)nc1 [Example 145] , and I need its recorded IC50.
[reply] ≤ 100 nM

[ask] Dear colleague, I am looking for the recorded IC50 of the following compound: CN(c1ccc(C2CC2)cc1)c1ccc2c(c1)OCC[C@H]2CNc1cnccc1C(=O)O [Example 134]
[reply] ≤ 100 nM

[ask] Looking for the measured IC50 of O=C(O)c1ccncc1NCC1CCCc2cc(N3CCCc4ccccc43)ccc21 (stereo not shown) [Example 4] , can you help?
[reply] 100 to 1000 nM

[ask] May I ask what IC50 has been recorded for Cc1cc(-c2ccc3c(c2)CCCC3CNc2cnccc2C(=O)O)ccn1 (stereo not shown) [Example 89, hydrochloride] ?
[reply] > 10000 nM

[ask] Return reported IC50; argument: O=C(O)c1ccncc1NC[C@@H]1CCCc2cc(OC(F)F)ccc21 [Example 61]
[reply] 1000 to 10000 nM

[ask] Report IC50 for O=C(O)c1ccncc1NC[C@@H]1CCOc2cc(-c3ccccc3Cl)ccc21 [Example 40] please.
[reply] ≤ 100 nM

[ask] Data request, read-out IC50, for CN(c1ccc2c(c1)OCC[C@H]2CNc1cnccc1C(=O)O)c1ccc(Cl)cn1 [Example 152]
[reply] 100 to 1000 nM

[ask] Fill blank: measured IC50 of the compound Cc1ccc(Sc2ccc3c(c2)CCC[C@H]3CNc2cnccc2C(=O)O)cc1 [Example 79] is ____.
[reply] ≤ 100 nM

[ask] Requested field: IC50. Item: CC(C)c1ccc(N(C)c2ccc3c(c2)OCC[C@H]3CNc2cnccc2C(=O)O)cc1 [Example 187]
[reply] ≤ 100 nM

[ask] Sample Cc1cccc(N(C)c2ccc3c(c2)OCC[C@H]3CNc2cnccc2C(=O)O)n1 [Example 148] — what was its IC50?
[reply] 100 to 1000 nM

[ask] Which IC50 is reported for this compound? CN(c1ccc(OC(F)F)cc1)c1ccc2c(c1)CCC[C@H]2CNc1cnccc1C(=O)O [Example 184]
[reply] ≤ 100 nM

[ask] Dear colleague, I am looking for the recorded IC50 of the following compound: Cc1ccc(N(C)c2ccc3c(c2)CCC[C@H]3CNc2cnccc2C(=O)O)nc1 [Example 122]
[reply] ≤ 100 nM

[ask] Could you share which IC50 value was measured for CN(c1ccc(C2=CCOCC2)cc1)c1ccc2c(c1)OCC[C@H]2CNc1cnccc1C(=O)O [Example 201] ?
[reply] ≤ 100 nM

[ask] I have this compound here, C[C@H](O)c1ccc(N(C)c2ccc3c(c2)CCC[C@H]3CNc2cnccc2C(=O)O)cc1 (single isomer, unassigned) [Example 169] , and I need its recorded IC50.
[reply] ≤ 100 nM

[ask] May I ask what IC50 has been recorded for CCN(c1ccccc1)c1ccc2c(c1)CCC[C@H]2CNc1cnccc1C(=O)O [Example 10] ?
[reply] ≤ 100 nM

[ask] // returns reported IC50 for input Cc1cccc(Oc2ccc3c(c2)CCCC3CNc2cnccc2C(=O)O)n1 (stereo not shown) [Example 56]
[reply] 1000 to 10000 nM

[ask] Which measured IC50 value corresponds to O=C(O)c1ccncc1NC[C@@H]1CCOc2cc(-c3ccccc3C(F)(F)F)ccc21 [Example 46] ?
[reply] ≤ 100 nM

[ask] What does the record list as IC50 for CN(c1ccc(C2CCOCC2)cc1)c1ccc2c(c1)CCC[C@H]2CNc1cnccc1C(=O)O [Example 175] ?
[reply] ≤ 100 nM

[ask] Name the reported IC50 value associated with the compound COc1ccccc1-c1ccc2c(c1)OCC[C@H]2CNc1cnccc1C(=O)O [Example 116]
[reply] 100 to 1000 nM

[ask] Which measured IC50 value corresponds to CN(c1ccc(OCC2CC2)cc1)c1ccc2c(c1)CCC[C@H]2CNc1cnccc1C(=O)O [Example 209] ?
[reply] ≤ 100 nM

[ask] Consider the compound O=C(O)c1ccncc1NCC1CCOc2cc(Nc3ccccc3)ccc21 (stereo not shown) [Example 15] and give its measured IC50.
[reply] 1000 to 10000 nM

[ask] For the compound shown here, CN(c1ccc(OC(F)F)cc1)c1ccc2c(c1)OCC[C@H]2CNc1cnccc1C(=O)O [Example 190] , give the reported IC50.
[reply] ≤ 100 nM

[ask] May I ask what IC50 has been recorded for O=C(O)c1ccncc1NC[C@@H]1CCOc2cc(Oc3ccccc3)ccc21 [Example 48] ?
[reply] 1000 to 10000 nM

[ask] Name the reported IC50 value associated with the compound CCN(c1ccccc1)c1ccc2c(c1)OCC[C@H]2CNc1cnccc1C(=O)O [Example 24]
[reply] ≤ 100 nM

[ask] Can you look up the measured IC50 of CN1CCC(c2ccc(N(C)c3ccc4c(c3)OCC[C@H]4CNc3cnccc3C(=O)O)cc2)CC1 [Example 205] for me?
[reply] > 10000 nM

[ask] # IC50 lookup, item CN(c1ccccc1)c1ccc2c(n1)CCCC2CNc1cnccc1C(=O)O (stereo not shown) [Example 26]
[reply] 1000 to 10000 nM

[ask] I am curious: what IC50 value has been reported for CCc1ccc(N(C)c2ccc3c(c2)OCC[C@H]3CNc2cnccc2C(=O)O)cc1 [Example 154] ?
[reply] ≤ 100 nM

[ask] Can you look up the measured IC50 of Cc1ccccc1-c1ccc2c(c1)OCC[C@H]2CNc1cnccc1C(=O)O [Example 101] for me?
[reply] ≤ 100 nM

[ask] Fill in: IC50 of COc1cc2c(c(OC)c1)C(CNc1cnccc1C(=O)O)CCC2 (stereo not shown) [Example 95] is ___
[reply] > 10000 nM

[ask] Could you share which IC50 value was measured for O=C(O)c1ccncc1NC[C@@H]1CCCc2cc(Sc3ccc(F)cc3)ccc21 [Example 77] ?
[reply] ≤ 100 nM

[ask] Value lookup for IC50; key = O=C(O)c1ccncc1NCC1CCCc2cc(C3CCOCC3)ccc21 (stereo not shown) [Example 88]
[reply] > 10000 nM

[ask] Query: IC50; subject: Cc1ccc(N(C)c2ccc3c(c2)CCC[C@H]3CNc2cnccc2C(=O)O)cc1 [Example 140]
[reply] ≤ 100 nM

* * *

pIC50: −log10 of the molar value.
REPORTED PROPERTY: pIC50

[ask] What value of pIC50 on JMJD2C (Homo sapiens (Human)) does `O=C(O)c1ccncc1NC[C@@H]1CCCc2cc(N3CCCCc4ccccc43)ccc21` have?
[reply] 5.00 to 6.00

[ask] pIC50 of `COc1cccc(N(C)c2ccc3c(c2)CCC[C@H]3CNc2cnccc2C(=O)O)n1` on JMJD2C (Homo sapiens (Human))?
[reply] 6.00 to 7.00

[ask] Missing value: pIC50, JMJD2C (Homo sapiens (Human)), entry `Cc1ccccc1Oc1ccc2c(c1)CCC[C@@H]2CNc1cnccc1C(=O)O` . Fill in?
[reply] 5.00 to 6.00

[ask] Recorded pIC50 for `CN(c1ccc2c(c1)CCC2)c1ccc2c(c1)OCC[C@H]2CNc1cnccc1C(=O)O` with JMJD2C (Homo sapiens (Human)), please?
[reply] 6.00 to 7.00

[ask] Give pIC50 (JMJD2C (Homo sapiens (Human))) of the following compound: `O=C(O)c1ccncc1NC[C@@H]1CCCc2cc(Sc3cccc(F)c3)ccc21`
[reply] 6.00 to 7.00

Value source: patent US10106534B2
